Sourced from patent US20230174641A1

- STUDY_SYSTEM: T1, human ACTH 1-39 (human)
- T1 peptide: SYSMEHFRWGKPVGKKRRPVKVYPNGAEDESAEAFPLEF
- TEST_SUMMARY: cell-based or functional assay
For each record, write down the corresponding MC3R IC50.
Report as a plain number; the unit nM is understood.

// fetch MC3R IC50 given entry Ab10 (antibody, human IgG1, kappa, N297A, V domains shown, rabbit/human chimeric antibody, made in HEK-293) VH: QSVEESGGRLVTPGTPLTLTCTVSGFSLSSADMIWVRQAPGKGLESIGMIYDDGDTYYATWAKGRFTISKTSTTVDLKIISPTTEDTATYFCVKGVSSVWGQGTLVTVSS VL: DVVMTQTPASVEAAVGGTVTINCQASENIYRSLAWYQQKPGQPPKLLIYSASTLASGVPSRFKGSGSGTEFTLTISDLECADAATYYCQSYDGSSSSSYGVGFGGGTEVVVKR 133

// fetch MC3R IC50 given entry Ab2 (antibody, human IgG1, kappa, N297A, V domains shown, rabbit/human chimeric antibody, made in HEK-293) VH: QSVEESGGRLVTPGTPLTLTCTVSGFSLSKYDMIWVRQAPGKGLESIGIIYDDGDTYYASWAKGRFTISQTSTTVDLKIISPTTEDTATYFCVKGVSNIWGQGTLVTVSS VL: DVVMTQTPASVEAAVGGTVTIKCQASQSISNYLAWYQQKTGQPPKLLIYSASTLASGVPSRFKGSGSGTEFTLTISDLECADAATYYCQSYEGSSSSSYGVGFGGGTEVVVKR 79

// fetch MC3R IC50 given entry Ab11 (antibody, human IgG1, kappa, N297A, V domains shown, rabbit/human chimeric antibody, made in HEK-293) VH: QSLEESGGRLVTPGTSLTLTCTASGFSLSAYDILWVRQAPGKGLESIGMMYDDGDTYYATWAKGRFIISRTSTTMDLKIISPTTEDTATYFCVKGVSNIWGQGTLVTVSS VL: DIVMTQIPASVEAAVGGTVTIKCQASQSIDSSLAWYQQKPGQPPKLLIYSASTLASGVPSRFKGSGSGTEFTLTIGDLECADAATYYCQSYDGSSSSYYGIGFGGGTEVVVKR 108
